melting point for assorted compounds

Below: 8 compounds and their reported melting point.
[[record]]
compound = "O=C1C(Cl)=C(Oc2cccc3ccc(Cl)nc23)C(=O)c2ccccc21 [Compound 14d]"
recorded_endpoint = "melting point"
test_value = "101 to 103 °C"

[[record]]
compound = "Cc1ccc2c(n1)C(=O)C(Oc1cccc3ccc(C)nc13)=C(Cl)C2=O [Compound 12b]"
recorded_endpoint = "melting point"
test_value = "130 to 132 °C"

[[record]]
compound = "Cc1ccc2c(n1)C(=O)C(Oc1cccc3ccc(Cl)nc13)=C(Cl)C2=O [Compound 12d]"
recorded_endpoint = "melting point"
test_value = "120 to 122 °C"

[[record]]
compound = "Cc1ccc2cccc(OC3=C(Cl)C(=O)c4ccccc4C3=O)c2n1 [Compound 14b]"
recorded_endpoint = "melting point"
test_value = "100 to 102 °C"

[[record]]
compound = "O=Cc1ccc2cccc(OC3=C(Cl)C(=O)c4ccncc4C3=O)c2n1 [Compound 13c]"
recorded_endpoint = "melting point"
test_value = "166 to 168 °C"

[[record]]
compound = "Cc1ccc2cccc(OC3=C(Cl)C(=O)c4cccnc4C3=O)c2n1 [Compound 11b]"
recorded_endpoint = "melting point"
test_value = "110 to 112 °C"

[[record]]
compound = "O=C1C(Cl)=C(Oc2cccc3cccnc23)C(=O)c2ccccc21 [Compound 14a]"
recorded_endpoint = "melting point"
test_value = "115 to 117 °C"

[[record]]
compound = "Cc1ccc2c(n1)C(=O)C(Oc1cccc3cccnc13)=C(Cl)C2=O [Compound 12a]"
recorded_endpoint = "melting point"
test_value = "115 to 117 °C"


Req: Consider the compound O=C1C(Cl)=C(Oc2cccc3ccc(Cl)nc23)C(=O)c2cnccc21 [Compound 13d] and give its recorded melting point.
Resp: 127 to 129 °C

Req: Consider the compound Cc1ccc2c(n1)C(=O)C(Oc1cccc3ccc(C=O)nc13)=C(Cl)C2=O [Compound 12c] and give its recorded melting point.
Resp: 184 to 186 °C

Req: Consider the compound O=C1C(Cl)=C(Oc2cccc3ccc(Cl)nc23)C(=O)c2ncccc21 [Compound 11d] and give its recorded melting point.
Resp: 123 to 125 °C

Req: Consider the compound Cc1ccc2cccc(OC3=C(Cl)C(=O)c4ccncc4C3=O)c2n1 [Compound 13b] and give its recorded melting point.
Resp: 110 to 112 °C

Req: Consider the compound O=Cc1ccc2cccc(OC3=C(Cl)C(=O)c4ccccc4C3=O)c2n1 [Compound 14c] and give its recorded melting point.
Resp: 131 to 133 °C

Req: Consider the compound O=C1C(Cl)=C(Oc2cccc3cccnc23)C(=O)c2cnccc21 [Compound 13a] and give its recorded melting point.
Resp: 86 to 88 °C

Req: Consider the compound O=C1C(Cl)=C(Oc2cccc3cccnc23)C(=O)c2ncccc21 [Compound 11a] and give its recorded melting point.
Resp: 112 to 114 °C

Req: Consider the compound O=Cc1ccc2cccc(OC3=C(Cl)C(=O)c4cccnc4C3=O)c2n1 [Compound 11c] and give its recorded melting point.
Resp: 168 to 170 °C
